STUDY_SYSTEM: human macrophage elastase (HME/hMMP-12) (Homo sapiens)
Sequence (P39900 106-470): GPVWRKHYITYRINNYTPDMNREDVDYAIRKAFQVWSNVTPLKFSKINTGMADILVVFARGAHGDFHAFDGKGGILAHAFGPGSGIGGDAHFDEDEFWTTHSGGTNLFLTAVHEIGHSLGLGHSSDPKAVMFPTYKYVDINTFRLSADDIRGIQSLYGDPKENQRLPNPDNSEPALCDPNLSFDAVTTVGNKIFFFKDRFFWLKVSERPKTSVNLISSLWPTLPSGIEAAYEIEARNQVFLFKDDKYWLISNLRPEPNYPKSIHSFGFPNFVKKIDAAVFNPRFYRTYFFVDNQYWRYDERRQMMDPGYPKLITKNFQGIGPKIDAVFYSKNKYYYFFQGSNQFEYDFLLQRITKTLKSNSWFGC
ASSAY_DETAILS: In vitro HME inhibition test (standard or high-sensitivity)
EXPERIMENTAL_CONTEXT: in some cases mean values, rounded to two significant figures
Description: The potency of the compounds according to the invention with respect to HME (MMP-12) is determined in an in vitro inhibition test. The HME-mediated amidolytic cleavage of a suitable peptide substrate leads to an increase in fluorescent light therein. The signal intensity of the fluorescent light is directly proportional to the enzyme activity. […]
pIC50: −log10 of the molar value.
REPORTED_METRIC: pIC50

> print(dat)
                                   compound                              study.system  reported.metric  endpoint.value
1  CCCCOc1ccc2cc(C(=O)CC(CCn3nnc4ccccc4c3=O)C(=O)O)sc2c1 (racemic)  human macrophage elastase (HME/hMMP-12) (Homo sapiens)            pIC50            8.54
2  CCOc1ccc2cc(C(=O)CC(CCn3nnc4ccccc4c3=O)C(=O)O)sc2c1 (racemic)  human macrophage elastase (HME/hMMP-12) (Homo sapiens)            pIC50            8.55
3  NC(=O)c1ccc(COc2ccc3oc(C(=O)CC(CCn4nnc5ccccc5c4=O)C(=O)O)cc3c2)cc1 (racemic)  human macrophage elastase (HME/hMMP-12) (Homo sapiens)            pIC50            8.70
4  CCCCCCOc1ccc2cc(C(=O)CC(CCn3nnc4ccccc4c3=O)C(=O)O)oc2c1 (single isomer, unassigned; (+)) [Example 66]  human macrophage elastase (HME/hMMP-12) (Homo sapiens)            pIC50            8.62
5  O=C(CC(CCn1nnc2ccccc2c1=O)C(=O)O)c1onc2cc(OCc3ccccc3)ccc12 (racemic)  human macrophage elastase (HME/hMMP-12) (Homo sapiens)            pIC50            8.62
6  O=C(CC(CCn1nnc2ccccc2c1=O)C(=O)O)c1cc2ccc(OCc3ccc(F)cc3)cc2s1 (racemic)  human macrophage elastase (HME/hMMP-12) (Homo sapiens)            pIC50            8.40
7  CC(C)COc1ccc2c(C(=O)CC(CCn3nnc4ccccc4c3=O)C(=O)O)coc2c1 (single isomer, unassigned; (-)) [Example 106]  human macrophage elastase (HME/hMMP-12) (Homo sapiens)            pIC50            7.51

----------
STUDY_SYSTEM: human macrophage elastase (HME/hMMP-12) (Homo sapiens)
ASSAY_DETAILS: In vitro HME inhibition test (standard or high-sensitivity)
EXPERIMENTAL_CONTEXT: in some cases mean values, rounded to two significant figures
pIC50: −log10 of the molar value.
Catalogue of pIC50 values
REPORTED_METRIC: pIC50

> print(dat)
                                   compound  endpoint.value
1  O=C(CC(CCn1nnc2ccccc2c1=O)C(=O)O)c1cc2ccc(OCc3ccncc3)cc2s1 (racemic)            8.57
2  O=C(CC(CCn1nnc2ccccc2c1=O)C(=O)O)c1coc2cc(OCC3CCCCC3)ccc12 (single isomer, unassigned; (+)) [Example 82]           10.05
3  CC(C)CCCOc1ccc2cc(C(=O)CC(CCn3nnc4ccccc4c3=O)C(=O)O)oc2c1 (racemic)            8.39
4  CCCCOc1ccc2c(C(=O)CC(CCn3nnc4ccccc4c3=O)C(=O)O)coc2c1 (single isomer, unassigned; (+)) [Example 108]            9.64
5  Cc1c(COc2ccc3oc(C(=O)CC(CCn4nnc5ccccc5c4=O)C(=O)O)cc3c2)cccc1C(F)(F)F (racemic)            8.40
6  O=C(CC(CCn1nnc2ccccc2c1=O)C(=O)O)c1cc2cc(OCCc3ccccc3)ccc2o1 (single isomer, unassigned; (-)) [Example 20]            6.07
